- Experimental Target: Serine/threonine-protein kinase PAK 2 (Homo sapiens)
- Sequence (Q13177 whole entry): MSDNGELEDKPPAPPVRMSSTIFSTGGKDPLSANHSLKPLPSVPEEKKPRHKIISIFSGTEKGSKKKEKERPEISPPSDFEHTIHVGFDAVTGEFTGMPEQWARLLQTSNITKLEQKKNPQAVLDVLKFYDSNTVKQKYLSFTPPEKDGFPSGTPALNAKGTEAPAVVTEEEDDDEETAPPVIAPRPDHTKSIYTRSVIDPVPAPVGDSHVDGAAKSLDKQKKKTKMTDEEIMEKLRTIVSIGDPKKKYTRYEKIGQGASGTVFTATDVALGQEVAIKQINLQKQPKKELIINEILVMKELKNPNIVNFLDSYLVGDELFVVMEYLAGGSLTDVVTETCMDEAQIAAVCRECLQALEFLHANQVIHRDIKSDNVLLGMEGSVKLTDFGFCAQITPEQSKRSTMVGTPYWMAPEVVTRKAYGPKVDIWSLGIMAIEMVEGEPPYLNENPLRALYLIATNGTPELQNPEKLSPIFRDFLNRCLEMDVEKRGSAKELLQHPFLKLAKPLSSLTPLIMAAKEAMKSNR
Value Kind: pIC50
pIC50 here is simply -log10 of the concentration when that concentration is written in mol/L.

Task item: Retrieve pIC50 on Serine/threonine-protein kinase PAK 2 (Homo sapiens); query O=C(Nc1cc(C(F)(F)F)cc(C(F)(F)F)c1)NC1CCN(c2ncnc3[nH]ncc23)CC1
Reply: 5.98

---

// IC50 lookup, one value per entry
- Experimental Target: Serine/threonine-protein kinase PAK 1 (Homo sapiens, UniProt Q13153)
- Sequence (Q13153 whole entry): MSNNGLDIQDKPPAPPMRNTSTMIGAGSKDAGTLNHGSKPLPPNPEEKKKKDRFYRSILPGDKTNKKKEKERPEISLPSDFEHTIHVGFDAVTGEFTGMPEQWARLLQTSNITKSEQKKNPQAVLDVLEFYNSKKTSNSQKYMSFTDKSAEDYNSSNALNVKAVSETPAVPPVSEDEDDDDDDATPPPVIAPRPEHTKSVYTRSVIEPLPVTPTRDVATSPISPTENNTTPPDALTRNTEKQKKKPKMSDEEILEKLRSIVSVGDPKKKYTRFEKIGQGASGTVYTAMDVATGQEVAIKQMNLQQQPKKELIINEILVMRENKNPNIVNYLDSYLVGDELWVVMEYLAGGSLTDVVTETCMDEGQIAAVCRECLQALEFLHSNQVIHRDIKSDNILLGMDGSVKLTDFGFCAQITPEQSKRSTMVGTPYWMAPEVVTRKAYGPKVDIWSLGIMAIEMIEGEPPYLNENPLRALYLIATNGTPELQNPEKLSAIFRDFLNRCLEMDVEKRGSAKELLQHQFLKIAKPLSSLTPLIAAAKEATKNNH

Task item: Check the records and state IC50 for FC(F)(F)c1cc(NC(=S)N2CCC(Nc3ncnc4[nH]ncc34)CC2)cc(C(F)(F)F)c1
Reply: 8.71 µM

More entries:
Task item: Query IC50 for O=C(Nc1cccc2ccccc12)NC1CCN(c2ncnc3[nH]ncc23)CC1
Reply: 11.1 µM

Task item: Provide only the value of recorded IC50 for COc1ccc(NC(=O)N2CCC(Nc3ncnc4[nH]ncc34)CC2)cc1
Reply: 13.8 µM
